# procedure summary: yeast display, Sf9 membrane polyspecificity reagent, FACS + sequencing; frameworks hold sequencing errors

residue codes: QVQLVESGRGLVQAGGSLRLSCAASGSIFIANPMGWYRQAPGKQREFVADITLNGGSTYYADSVKGRFTISRDNAKNTVYLEMNRLNPEDTAVYYCAADWVWVAPQYWIVEYDYWGQGTQVTVSS
polyreactivity (PSR sort gate): low polyreactivity
--
residue codes: QVQLVESGGGLVQAGGSLRLSCAASGSIFRFYVMGWYRQAPGKEREMVAAISIGGSTNYADSVKGRFTISLDNAKNTVFLQMNSLKPEDTAVYYCAADYWYGAGMPHGTEFDYWGQGTQVTVSS
polyreactivity (PSR sort gate): low polyreactivity
--
residue codes: QVQLVESGGGLVQAGGSLRLSCAASGSIFQFNGMGWYRQAPGKERELVASINWSGGSTNYADSVMGRFTISRDNAKNTVYLQMNSLKAEDTAVYYCAVGHRIYRSRYNYWGQGTQVTVSS
polyreactivity (PSR sort gate): low polyreactivity

###

# procedure summary: yeast display, Sf9 membrane polyspecificity reagent, FACS + sequencing; frameworks hold sequencing errors
measurement label: polyreactivity (PSR sort gate)

Consider the reported polyreactivity (PSR sort gate) for these sequences:
residue codes: QVQLVESWGGLVQAGGSLRLSCAASGSIFRRYAMGWYRQAPGKERELVAAISIGGRTYYADSVKGRFTISRDNAKNTVYFQMNSLKPEDTAVYYCAARESRSWGGGSWGQGTQVTVSS
polyreactivity (PSR sort gate): high polyreactivity

residue codes: QVQLVESGGGLVQAGGSLRLSCAASGFTFYRYAMGWYRQAPGKERELVAAITSGGDTYYADSVKGRFTISRDNAKNTVYLQMNSLKPEDTAVYYCAAAPRYGYGLASDSIFDYWGQGTQVTVSS
polyreactivity (PSR sort gate): high polyreactivity

residue codes: QVQLVESGGGLVQAGGSLRLSCAASGSIFTDNSMGWYRQAPGKERELVAAIDSVGSTYYADSVKGRFTISRDNAKNTVYLQMNSLKPEDTAVYYCAADLYFPYESYYWGQGTQVTVSS
polyreactivity (PSR sort gate): low polyreactivity

residue codes: QVQLVESGGGLVQAGGSLRLSCAASGSIFPYYTMGWYRQAPGKERELVAAISGSGTSTYYADSVKGRFTISRDNAKNTVYLQMNSLKPEDTADYYCAAPDPDKVRSEGYGYWGQGTHVTVSS
polyreactivity (PSR sort gate): low polyreactivity

residue codes: QVQLVDSGGGIVQEGGSRRLSCAASGSIFVNYAMGWYRQAPGKERELVAAITLRGVSTFYADSVKGRFTISRDNAKNTVYLQMNSLKPEETAVYYCAASSLRYRAYKSLFDYWGQGTQVTVSS
polyreactivity (PSR sort gate): low polyreactivity

residue codes: QVQLVESGGGLVQAGGSLRLSCAASGSILRGYAMGWYRQAPGKERELVAAITWNGGSTYYADSVKGRFTISRDNAKNTVYLQMNSLKPEDTAVYYCNRAIGPYSYPDNYWGQGTQVTVSS
polyreactivity (PSR sort gate): high polyreactivity

residue codes: QVQLVESGGGLVQAGGSRRLSCAASGFIFSGYAMGWYRQERGKERELVAAITRSGSRTYYADSVKGRFTISRDNAKNTVYLQMNSLKPEDTAVYYCAKDKPKYGISTIDYWGQGTLVTVSS
polyreactivity (PSR sort gate): high polyreactivity

residue codes: QVQLVESAGGLVQAGGSLRLSCAASGRIFVRYAKGRYREAPGKVRELVAAISSSGSSTYYADSVKRRFTISRDNASNTVYLQMNSLKPEDTAVYYCNAVPSVRWRYDYWGQGTQVTVSS
polyreactivity (PSR sort gate): high polyreactivity

Q: For the sequence QVQHVESGGGLVQAGGSLRLSCAASGFIFTHYTMGWSRQAPGKESELVAVISSAGSTYYADSVKGRFTISRDNAKNTVYLQMNSLKPEDTAVYYCNKVVRQVHGRGLDYWGQGTQVTVSS , what polyreactivity (PSR sort gate) is on record?
Ans: high polyreactivity

Q: I have this sequence here, QVQLVQSGGGLVQAVGSLRLSCAASGRTFPYYTMGWYRQARGKERELVAAINSSGGRTYYADSVKGRFTISRDNAKNTVYLQMNSLKPEDTAVYYCAKRGYYKYDWGQGTQVTVSS , and I need its recorded polyreactivity (PSR sort gate).
Ans: high polyreactivity

Q: I would be grateful if you could share the reported polyreactivity (PSR sort gate) for QVQLVESGGGLVQAGGSLRLSCAASGSIFVPYAMGWYRQAPGKERELVAAISSSTASTYYADSVKARFTISRDYAKNTVYFQMNCLKPEDTAVYYCNAEQWDYGVRVAHYDYWGQGTQVTVSS .
Ans: low polyreactivity
